- Test system: OVCAR-5 ovarian
- EXPERIMENT SUMMARY: NCI tumour cell line growth inhibition, 48 h
Quick list: TGI per entry.

Study these solved cases before continuing.
INSERT INTO assay_data (molecule, measurement_target, observed) VALUES
  ('O=C(CO[N+](=O)[O-])OC/C=C/c1ccccc1', 'OVCAR-5 ovarian', '> 100 µM'),
  ('CS(C)(=O)=Nn1c(=O)n2n(c1=O)C1c3ccccc3C2c2ccccc21', 'OVCAR-5 ovarian', '> 100 µM'),
  ('CCOC(=O)c1c(NC(=O)c2ccccc2)sc2c3c(ccc12)OCN(C)C3', 'OVCAR-5 ovarian', '3.16 µM'),
  ('CCOC(=O)c1nc2ccccc2nc1Oc1ccc(C#N)cc1', 'OVCAR-5 ovarian', '> 100 µM'),
  ('Nc1nnnc2nc[nH]c12', 'OVCAR-5 ovarian', '> 100 µM');

Item under review: COc1c(O)cc2c(c1O)C(=O)C1=C(CCCC1)C2=O . Reported TGI? > 100 µM

Item under review: NS(=O)(=O)c1nnc(NC(=O)c2cccc([N+](=O)[O-])c2)s1 . Reported TGI? > 100 µM

Item under review: C[N+]1(CCC(=O)c2ccccc2)CCC2CCC(C2)C1 (configuration not stated) . Reported TGI? > 100 µM

Item under review: O=C(c1ccccc1)c1ccc2c(c1)nc1n2C(c2c(F)cccc2F)SC1 (configuration not stated) . Reported TGI? > 100 µM

Item under review: CCOC(=O)/C(C#N)=C1\SS/C(=C(/C#N)C(=O)OCC)S1 . Reported TGI? 42.8 µM

Item under review: O=c1cc(NNc2ccccc2F)[nH]c(=O)[nH]1 . Reported TGI? 38.7 µM

Item under review: COC(=O)n1c(C)c(C=O)c2ccc(OC)cc21 . Reported TGI? > 100 µM

###

- System: SNB-19 CNS
- EXPERIMENT SUMMARY: NCI tumour cell line growth inhibition, 48 h
PARAMETER: TGI

INSERT INTO assay_data (molecule, observed) VALUES
  ('CCc1[nH]c(=O)c2oc3cc4ccccc4cc3c2c1C(=O)O', '> 10 µM'),
  ('O=c1c2ccccc2nc(-c2ccccc2Cl)n1-c1nnc(C(F)(F)F)s1', '> 100 µM'),
  ('CC(=O)[CH-]C(=O)c1ccccc1.CC(=O)[CH-]C(=O)c1ccccc1.CC(C)CCC[C@H](C)C1CCC2[C@@H]3CC=C4C[C@@H]([O-])CC[C@]4(C)C3CC[C@@]21C.CC(C)CCC[C@H](C)C1CCC2[C@@H]3CC=C4C[C@@H]([O-])CC[C@]4(C)C3CC[C@@]21C.Cl.[Ti+4] (some centres undefined)', '> 25 µM'),
  ('O=C(Cn1c(=O)oc2ccc(C(=O)c3ccc(F)cc3)cc21)c1ccccc1', '> 100 µM'),
  ('CC(C)(C)NC(=O)[C@H]1CC[C@H]2[C@@H]3CC[C@H]4NC(=O)C=C[C@]4(C)[C@H]3CC[C@]12C', '> 100 µM'),
  ('N#C/C(=C\c1cc(O)ccc1O)C(N)=O', '> 100 µM'),
  ('Cc1ccc(NC(=O)CSc2nnc(Cc3ccccc3)o2)cc1', '> 100 µM'),
  ('O=C(c1ccccc1)c1ccc2c(c1)nc1n2C(c2c(F)cccc2F)SC1 (centres undefined)', '> 100 µM'),
  ('CC/C(=N/O)c1ccc2[nH]c3c(C)cc([N+](=O)[O-])c(C)c3c2c1', '> 100 µM'),
  ('CSC1=C(C(=O)Nc2ccc(C)cc2)C(N)=NC1=O', '> 100 µM');

Item under review: CC(C)CC(NP(=O)(O)OC1OC(C)C(O)C(O)C1O)C(=O)NC(Cc1c[nH]c2ccccc12)C(=O)O (centres undefined) . Reported TGI? > 100 µM

Item under review: O=C(Nc1ccc(-n2ccc3c(NC(=O)c4ccccc4)nccc32)cc1)Nc1cccc(C(F)(F)F)c1 . Reported TGI? 26.8 µM

Item under review: CCO/C(O)=C(/C(=N)N1CCCC1)C(=O)Nc1cccc(Cl)c1 . Reported TGI? > 100 µM

Item under review: CCN(CC)CCC1(C2CCCCC2)CCC(=O)NC1=O (centres undefined) . Reported TGI? > 100 µM

Item under review: CC(C)[Si]1(C(C)C)OCC2OC(n3c(C(=O)c4ccccc4)cc(=O)[nH]c3=O)CC2O[Si](C(C)C)(C(C)C)O1 (centres undefined) . Reported TGI? 22.4 µM

Item under review: COc1cc(COC(=O)N2CC=CC2C(=O)O)c([N+](=O)[O-])cc1OC (centres undefined) . Reported TGI? > 100 µM
